fold (off-rate vs DLLBII101G08) values by entry
# testTarget: T1, recombinant human DLL4 (C-terminally His-tagged extracellular domain, R&D Systems) (human, UniProt Q9NR61 25-522, biotinylated in the competition ELISA)
# T1 construct: also called rhDLL4; hDLL4
# T1 sequence (Q9NR61 25-522): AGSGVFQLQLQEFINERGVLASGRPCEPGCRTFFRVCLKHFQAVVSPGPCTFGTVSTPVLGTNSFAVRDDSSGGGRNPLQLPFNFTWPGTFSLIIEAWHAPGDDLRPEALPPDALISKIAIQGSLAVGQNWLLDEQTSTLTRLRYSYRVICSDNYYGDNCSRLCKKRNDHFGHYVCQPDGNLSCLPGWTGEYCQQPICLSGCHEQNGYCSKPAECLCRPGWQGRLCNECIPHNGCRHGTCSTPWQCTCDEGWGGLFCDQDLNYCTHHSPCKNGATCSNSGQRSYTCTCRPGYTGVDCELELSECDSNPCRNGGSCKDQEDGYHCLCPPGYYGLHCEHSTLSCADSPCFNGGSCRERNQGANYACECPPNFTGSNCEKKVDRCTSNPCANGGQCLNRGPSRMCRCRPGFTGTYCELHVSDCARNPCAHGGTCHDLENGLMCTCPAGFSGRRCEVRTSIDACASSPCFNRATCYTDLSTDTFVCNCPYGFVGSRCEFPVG
# assaySummary: ProteOn off-rate screen, periplasmic extract, coated human DLL4

{"binder": "DLLBII129A03 (VHH, not shown: small tags and cut ends) VHH: EVQLVESGGGLVQAGGSLRLSCAASGRTFSSYAMAWFRQAPGKEREYVAAIRWSGGTAYYADSVQGRFTISRDNAKNTVYLQMNSLRPEDTAVYYCANRAPDTRLRPYLYDYWGQGTQVTVSS", "fold (off-rate vs DLLBII101G08)": "19 fold"}
{"binder": "DLLBII129E07 (VHH) VHH: EVQLVESGGGLVQAGGSLRLSCSASGRTFSSYAMAWYRQAPGKEREYVAAIRWSGGTAYYPDSVQGRFTISRDNAKNTVYLQMNSLKPEDTAVYYCANRAPDTRLAPYEYDHWGQGTQVTVSS", "fold (off-rate vs DLLBII101G08)": "21 fold"}
